- Assay Target: exocyst subcomplex-2 (Exoc5:6:7:8) (Homo sapiens)
- Construct: gene EXOC7; Sf9 baculovirus; heterotetramer; with Exocyst complex component 5; Exocyst complex component 6; Exocyst complex component 8
- Sequence (Q9UPT5 whole entry): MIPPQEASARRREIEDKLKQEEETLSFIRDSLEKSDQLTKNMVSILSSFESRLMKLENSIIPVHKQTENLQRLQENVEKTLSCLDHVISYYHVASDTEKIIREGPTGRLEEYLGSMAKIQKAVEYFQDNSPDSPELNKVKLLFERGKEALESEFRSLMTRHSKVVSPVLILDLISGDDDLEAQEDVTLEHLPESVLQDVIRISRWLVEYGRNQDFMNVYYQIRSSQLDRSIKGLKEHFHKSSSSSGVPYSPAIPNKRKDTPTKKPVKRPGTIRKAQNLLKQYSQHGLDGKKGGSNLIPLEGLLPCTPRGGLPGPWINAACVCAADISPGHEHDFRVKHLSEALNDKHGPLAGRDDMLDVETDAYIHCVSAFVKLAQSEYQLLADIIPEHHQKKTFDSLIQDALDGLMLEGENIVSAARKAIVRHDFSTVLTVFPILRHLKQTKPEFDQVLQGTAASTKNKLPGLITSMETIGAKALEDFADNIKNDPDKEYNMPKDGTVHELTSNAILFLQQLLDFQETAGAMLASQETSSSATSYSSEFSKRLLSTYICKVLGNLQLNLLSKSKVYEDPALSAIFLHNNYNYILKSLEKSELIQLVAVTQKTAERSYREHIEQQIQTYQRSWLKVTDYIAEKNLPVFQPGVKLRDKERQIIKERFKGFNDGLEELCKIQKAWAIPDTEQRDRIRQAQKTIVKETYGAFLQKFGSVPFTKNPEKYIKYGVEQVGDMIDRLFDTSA
- Sequence (O00471 2-708 partner): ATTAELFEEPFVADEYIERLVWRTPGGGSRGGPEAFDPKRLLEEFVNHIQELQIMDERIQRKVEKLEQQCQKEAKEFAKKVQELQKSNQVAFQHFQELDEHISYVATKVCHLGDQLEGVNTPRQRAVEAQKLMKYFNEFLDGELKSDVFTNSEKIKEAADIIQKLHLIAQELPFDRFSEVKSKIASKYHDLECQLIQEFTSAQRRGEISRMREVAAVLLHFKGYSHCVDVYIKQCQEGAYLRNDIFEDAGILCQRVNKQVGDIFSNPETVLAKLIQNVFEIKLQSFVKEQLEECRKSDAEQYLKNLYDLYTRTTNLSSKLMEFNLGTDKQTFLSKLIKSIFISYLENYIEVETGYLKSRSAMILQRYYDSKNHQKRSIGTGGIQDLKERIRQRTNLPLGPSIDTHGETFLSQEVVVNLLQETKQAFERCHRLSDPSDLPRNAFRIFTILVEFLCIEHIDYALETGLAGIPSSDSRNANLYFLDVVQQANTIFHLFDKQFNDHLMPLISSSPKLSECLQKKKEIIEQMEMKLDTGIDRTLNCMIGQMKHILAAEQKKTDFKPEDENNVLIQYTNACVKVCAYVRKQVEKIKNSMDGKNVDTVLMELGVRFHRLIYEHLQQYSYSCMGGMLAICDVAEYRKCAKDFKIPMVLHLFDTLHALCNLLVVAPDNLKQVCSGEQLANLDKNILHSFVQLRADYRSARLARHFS
- Sequence (Q8TAG9 whole entry partner): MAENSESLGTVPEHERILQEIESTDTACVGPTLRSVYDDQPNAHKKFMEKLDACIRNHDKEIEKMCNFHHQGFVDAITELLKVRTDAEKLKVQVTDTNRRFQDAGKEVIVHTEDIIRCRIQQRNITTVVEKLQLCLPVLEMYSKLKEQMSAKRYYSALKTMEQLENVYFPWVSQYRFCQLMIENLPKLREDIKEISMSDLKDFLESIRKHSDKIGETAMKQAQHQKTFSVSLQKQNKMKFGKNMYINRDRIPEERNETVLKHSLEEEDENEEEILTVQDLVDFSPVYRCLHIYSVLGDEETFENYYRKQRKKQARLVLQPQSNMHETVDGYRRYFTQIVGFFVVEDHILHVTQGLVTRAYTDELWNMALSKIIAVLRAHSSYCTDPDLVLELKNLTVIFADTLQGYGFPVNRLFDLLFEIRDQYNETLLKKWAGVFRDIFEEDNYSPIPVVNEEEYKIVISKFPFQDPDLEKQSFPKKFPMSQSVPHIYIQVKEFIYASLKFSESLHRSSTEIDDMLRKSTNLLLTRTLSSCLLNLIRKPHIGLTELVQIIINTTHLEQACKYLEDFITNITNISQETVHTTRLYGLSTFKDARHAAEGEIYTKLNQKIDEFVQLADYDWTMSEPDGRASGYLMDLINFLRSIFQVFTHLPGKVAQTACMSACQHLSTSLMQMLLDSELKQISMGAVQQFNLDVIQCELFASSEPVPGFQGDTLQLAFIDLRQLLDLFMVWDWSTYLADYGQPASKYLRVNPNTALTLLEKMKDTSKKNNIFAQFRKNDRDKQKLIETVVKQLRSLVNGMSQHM
- Sequence (Q8IYI6 whole entry partner): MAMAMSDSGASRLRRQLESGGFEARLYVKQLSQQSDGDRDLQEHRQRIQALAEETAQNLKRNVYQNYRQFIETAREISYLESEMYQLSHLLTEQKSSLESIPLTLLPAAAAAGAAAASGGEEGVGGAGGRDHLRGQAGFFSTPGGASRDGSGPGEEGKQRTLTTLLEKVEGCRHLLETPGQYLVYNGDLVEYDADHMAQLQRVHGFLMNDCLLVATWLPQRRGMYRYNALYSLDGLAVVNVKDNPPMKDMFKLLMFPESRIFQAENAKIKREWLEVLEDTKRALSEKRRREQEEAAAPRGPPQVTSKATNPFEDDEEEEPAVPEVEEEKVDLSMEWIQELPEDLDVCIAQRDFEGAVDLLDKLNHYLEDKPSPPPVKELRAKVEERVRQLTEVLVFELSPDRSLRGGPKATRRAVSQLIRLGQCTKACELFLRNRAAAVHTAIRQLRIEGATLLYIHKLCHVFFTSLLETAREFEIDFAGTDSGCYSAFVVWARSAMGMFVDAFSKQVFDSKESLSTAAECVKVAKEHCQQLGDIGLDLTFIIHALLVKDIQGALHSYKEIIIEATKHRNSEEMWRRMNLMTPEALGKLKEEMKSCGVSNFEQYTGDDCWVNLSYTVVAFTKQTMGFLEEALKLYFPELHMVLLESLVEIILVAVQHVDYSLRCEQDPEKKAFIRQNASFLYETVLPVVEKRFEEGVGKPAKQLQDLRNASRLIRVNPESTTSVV
- Experimental Details: membrane-coated bead recruitment, confocal fluorescence, single-site fit
- Assay type: binding
- Condition Description: apparent affinity in protein concentration; 5 mol% PI(4,5)P2, 85% POPC, 10% phosphatidylserine on silica beads; room temperature, 30 min; 20 mM HEPES, 150 mM NaCl; read-out: KD,relative
Experimental Endpoint: pKd
pKd here is simply -log10 of the concentration when that concentration is written in mol/L.

Request: Fill in the blank: the reported pKd of CCCCCCCCCCCCCCCC(=O)OC[C@H](COP(=O)(O)O[C@@H]1[C@H](O)[C@H](O)[C@@H](OP(=O)(O)O)[C@H](OP(=O)(O)O)[C@H]1O)OC(=O)CCCCCCCCCCCCCCC [PI(4,5)P2] is ____.
Result: 7.41
